biological target: binding partner of C5A (XPA23); test: Biacore
measured.attribute: fold affinity vs original (fold)
Write the answer as a number in fold, unit excluded.

Tell me its fold affinity vs original given C5A (XPA23) VH S105N (antibody, V domains shown) VH: EVQLLESGGGLVQPGGSLRLSCAASGFTFSKYFMFWVRQAPGKGLEWVSVISPSGGMTRYADSVKGRFTISRDNSKNTLYLQMNSLRAEDTAVYYCARVGYGGNNDYWGQGTLVTVSS VL: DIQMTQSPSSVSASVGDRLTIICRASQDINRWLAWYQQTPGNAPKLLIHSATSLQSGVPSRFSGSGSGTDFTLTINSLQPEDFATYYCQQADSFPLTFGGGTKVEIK as the entry.
0.85

Tell me its fold affinity vs original given C5A (XPA23) VH M57Q (antibody, V domains shown) VH: EVQLLESGGGLVQPGGSLRLSCAASGFTFSKYFMFWVRQAPGKGLEWVSVISPSGGQTRYADSVKGRFTISRDNSKNTLYLQMNSLRAEDTAVYYCARVGYGGNSDYWGQGTLVTVSS VL: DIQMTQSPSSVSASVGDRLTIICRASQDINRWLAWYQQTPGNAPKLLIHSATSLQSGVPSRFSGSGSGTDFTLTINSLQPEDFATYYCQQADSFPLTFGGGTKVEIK as the entry.
0.02

Tell me its fold affinity vs original given C5A (XPA23) VH G56R (antibody, V domains shown) VH: EVQLLESGGGLVQPGGSLRLSCAASGFTFSKYFMFWVRQAPGKGLEWVSVISPSGRMTRYADSVKGRFTISRDNSKNTLYLQMNSLRAEDTAVYYCARVGYGGNSDYWGQGTLVTVSS VL: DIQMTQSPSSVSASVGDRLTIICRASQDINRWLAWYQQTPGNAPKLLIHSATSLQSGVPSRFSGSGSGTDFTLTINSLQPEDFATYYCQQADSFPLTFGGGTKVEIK as the entry.
2.11

Where these numbers come from: patent US20110118447A1
